- target under test: XPA DBD D114Y (Homo sapiens, UniProt P23025 98-239, D114Y)
- Sequence (P23025 98-239 D114Y): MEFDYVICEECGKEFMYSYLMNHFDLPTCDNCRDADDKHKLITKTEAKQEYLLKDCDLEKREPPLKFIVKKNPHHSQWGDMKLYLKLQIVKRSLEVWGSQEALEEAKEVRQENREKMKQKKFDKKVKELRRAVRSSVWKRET
- measurement notes: MST
parameter: Kd (µM)
Dear colleague, please return just the value in µM, with no unit written.

For TTTTGCGGCCGCTTTTGCGGCCGC (structured_DNA) [NER junction mimic hairpin, 8 bp with 4 nt overhang] the binder record lists Kd as 8.8
